This listing pairs compounds with measured EC50.
- assayed_system: human GPR40 (Homo sapiens, UniProt O14842)
- Construct: expressed in transfected cells; host or cells: HEK cells stably expressing the aequorin reporter
- Sequence (O14842 whole entry): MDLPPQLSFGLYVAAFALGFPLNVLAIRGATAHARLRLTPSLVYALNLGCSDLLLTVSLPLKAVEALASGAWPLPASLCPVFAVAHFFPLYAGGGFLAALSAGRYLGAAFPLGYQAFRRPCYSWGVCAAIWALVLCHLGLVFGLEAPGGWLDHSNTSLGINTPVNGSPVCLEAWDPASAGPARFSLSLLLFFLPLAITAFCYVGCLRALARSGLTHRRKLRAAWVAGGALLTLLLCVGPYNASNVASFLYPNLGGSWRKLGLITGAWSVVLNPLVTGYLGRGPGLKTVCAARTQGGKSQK
- test_details: Inositol Phosphate Turnover (IP1) Assay 2
- Assay type: cell-based
- condition_summary: HEK cells stably expressing human GPR40; 15,000 cells per well; compound acoustically transferred; CisBio IP-One kit
- Method: Human and mouse GPR40 stable cell-lines were generated in CHO cells stably expressing NFAT BLA (Beta-lactamase). A human GPR40 stable cell-line was generated in HEK cells stably expressing the aequorin expressing reporter. […] Measurement of Inositol Phosphate Turnover (IP1) was performed using the CisBio IP-One kit (Part number 62IPAPEB). […] The plates were then read in a Perkin Elmer EnVision or equivalent reader able to measure FRET. […]
Put down the number, then write its unit next to it.

Consider the following illustrative entries.
COc1cc(-c2ccc(C3CCc4ccc([C@H](C5CC5)[C@H](C)C(=O)O)cc4O3)cc2CN2CCCC2)c(C#N)cn1 (mixture of isomers) ... 8 nM
COc1cc(-c2ccc([C@H]3CCc4ccc([C@H](C5CC5)[C@H](C)C(=O)O)cc4O3)cc2[C@H](C)N(C)C)c(F)cn1 [Example 82] ... 13 nM
CCOc1cc(-c2ccc(C3CCc4ccc([C@H](C5CC5)[C@H](C)C(=O)O)cc4O3)cc2CN2CCCC2)c(F)cn1 (mixture of isomers) [Example 74] ... 9.3 nM
COc1c[nH]nc1-c1ccc([C@@H]2CCc3ccc([C@H](C4CC4)[C@H](C)C(=O)O)cc3O2)cc1CN1CCCC1 ... 4840 nM
COc1cc(-c2ccc(C3CCc4ccc([C@H](C5CCC5)[C@H](C)C(=O)O)cc4O3)cc2CN2CCCC2)c(F)cn1 (single isomer, unassigned) [Example 93] ... 2.9 nM

Reported EC50 of COC[C@H]1CCCN1Cc1cc([C@@H]2CCc3ccc([C@H](C4CC4)[C@H](C)C(=O)O)cc3O2)ccc1-c1cc(OC)ncc1F : 1.6 nM

* * *

- assayed_system: human GPR40 (Homo sapiens, UniProt O14842)
- Construct: expressed in transfected cells; host or cells: HEK cells stably expressing the aequorin reporter
- test_details: Inositol Phosphate Turnover (IP1) Assay 3
- Format: cell-based
- condition_summary: HEK cells stably expressing human GPR40
attribute_measured: log10 EC50 (log10 of the value in nM)
// do not treat as linear: log10 of EC50, unit nM

COc1cc(-c2ccc(C3CCc4ccc([C@H](C5CCC5)[C@H](C)C(=O)O)cc4O3)cc2CN2CCCCC2)c(F)cn1 (single isomer, unassigned) [Example 105] ... -1.00
COc1cc(-c2ccc(C3CCc4ccc([C@H](C5CC5)[C@H](C)C(=O)O)cc4O3)c(CN(C(C)C)C(C)C)c2)ccn1 (single isomer, unassigned) [Example 115a] ... -1.00
COc1cc(-c2ccc([C@H]3CCc4ccc([C@H](C5CC5)[C@H](C)C(=O)O)cc4O3)cc2CN2C[C@H]3C[C@H]3C2)c(F)cn1 ... -0.52
CCN(CC)C(C)c1cc(C2CCc3ccc([C@H](C4CC4)[C@H](C)C(=O)O)cc3O2)ccc1-c1cc(OC)ncc1F (single isomer, unassigned) [Example 245] ... 0.73
CCN(Cc1cc(-c2cc(OC)ncc2F)ccc1C1CCc2ccc([C@H](C3CC3)[C@H](C)C(=O)O)cc2O1)C(C)C (single isomer, unassigned) [Example 124a] ... -1.05
COc1cc(-c2ccc(C3CCc4ccc([C@H](C5CC5)[C@H](C)C(=O)O)cc4O3)c(CN3[C@H](C)CC[C@H]3C)c2)ccn1 (single isomer, unassigned) [Example 116c] ... 3.00

Reported log10 EC50 of COc1cc(-c2ccc(C3CCc4ccc([C@H](C5CC5)[C@H](C)C(=O)O)c(F)c4O3)cc2CN2CCCC2)c(F)cn1 (single isomer, unassigned) [Example 199] : 0.76

Reported log10 EC50 of COc1cc(-c2ccc(C3CCc4ccc([C@H](C5CC5)[C@H](C)C(=O)O)cc4O3)cc2CN2[C@H](C)CC[C@@H]2C)c(F)cn1 (some centres unmarked) : -0.52

* * *

- assayed_system: human GPR40 (Homo sapiens, UniProt O14842)
- Construct: expressed in transfected cells; host or cells: HEK cells stably expressing the aequorin reporter
- test_details: Inositol Phosphate Turnover (IP1) Assay 3
- Assay type: cell-based
- condition_summary: HEK cells stably expressing human GPR40
attribute_measured: pEC50
In simple prose, pEC50 is minus the logarithm base ten of a concentration in moles per litre.

COc1cc(-c2ccc(C3CCc4ccc([C@H](C5CC5)[C@H](C)C(=O)O)cc4O3)c(CN3CCCC[C@H]3C)c2)ccn1 (mixture of isomers) [Example 120] ... 9.15

Reported pEC50 of CCC1CCCCN1Cc1cc(C2CCc3ccc(C(C4CC4)C(C)C(=O)O)cc3O2)ccc1-c1ccnc(OC)c1 (single isomer, unassigned) [Example 258b] : 8.66

Reported pEC50 of CCN(CC)Cc1cc(C2CCc3ccc([C@H](C4CC4)[C@H](C)C(=O)O)cc3O2)c(F)cc1-c1ccnc(OC)c1 (single isomer, unassigned) [Example 181] : 7.85

Reported pEC50 of COc1cc(-c2ccc(C3CCc4ccc([C@H](C5CC5)[C@H](C)C(=O)O)cc4O3)c(CN3CCCCC34CC4)c2)ccn1 (single isomer, unassigned) [Example 223] : 10.30

Reported pEC50 of COc1cc(-c2ccc(C3CCc4ccc([C@H](C5CC5)[C@H](C)C(=O)O)cc4O3)cc2CN2CCCC2)ccn1 (some centres unmarked) [Example 278] : 7.72

Reported pEC50 of COc1cc(-c2ccc(C3CCc4ccc([C@H](C5CC5)[C@H](C)C(=O)O)cc4O3)cc2C(C)N2CCCC2)ccn1 (some centres unmarked) : 7.85

Reported pEC50 of COc1cc(-c2ccc(C3CCc4ccc([C@H](C5CC5)[C@H](C)C(=O)O)cc4O3)cc2CN2[C@H](C)CC[C@@H]2C)ccn1 (some centres unmarked) : 8.55

Reported pEC50 of COc1cc(-c2ccc(C3CCc4ccc([C@H](C5CC5)[C@H](C)C(=O)O)cc4O3)c(CN3CCCC[C@H]3C)c2)ccn1 (single isomer, unassigned) [Example 120a] : 9.40

Reported pEC50 of CCN(Cc1cc([C@H]2CCc3ccc([C@H](C4CC4)[C@H](C)C(=O)O)cc3O2)ccc1-c1cc(OC)ncc1F)C(C)C : 9.30

* * *

- assayed_system: human GPR40 (Homo sapiens, UniProt O14842)
- Construct: expressed in transfected cells; host or cells: HEK cells stably expressing the aequorin reporter
- test_details: Inositol Phosphate Turnover (IP1) Assay 2
- Assay type: cell-based
- condition_summary: HEK cells stably expressing human GPR40; 15,000 cells per well; compound acoustically transferred; CisBio IP-One kit
pEC50: −log10 of the molar value.
The threshold is inclusive: pEC50 of exactly 8 counts as Met; values below receive Not met.

Check out these entries, answers already filled in.
COc1cc(-c2ccc(C3CCc4ccc([C@H](C5CC5)[C@H](C)C(=O)O)cc4O3)cc2CN2CC[C@@H](F)C2)c(F)cn1 (stereo partly drawn) [Example 16] ... Met
COc1cc(-c2ccc(C3CCc4ccc([C@H](C5CC5)[C@H](C)C(=O)O)cc4O3)cc2CN(C)C2CC2)c(F)cn1 (mixture of isomers) ... Met
COc1cc(-c2ccc(C3CCc4ccc([C@H](C5CC5)[C@H](C)C(=O)O)cc4O3)cc2CN2CCOCC2(C)C)c(F)cn1 (mixture of isomers) ... Met

pEC50 >= 8 for COc1cc(-c2ncc([C@H]3CCc4ccc([C@H](C5CC5)[C@H](C)C(=O)O)cc4O3)nc2CN2CCCC2)c(F)cn1 (single isomer, unassigned) [Example 110b] ?
Not met

pEC50 >= 8 for COc1cc(-c2ccc([C@@H]3CCc4ccc([C@H](C5CC5)[C@H](C)C(=O)O)cc4O3)cc2CN2CCC2(C)C)c(F)cn1 ?
Met

pEC50 >= 8 for COc1cc(-c2cc(F)c(C3CCc4ccc([C@H](C5CC5)[C@H](C)C(=O)O)cc4O3)cc2CN2CCCC2)ccn1 (stereo partly drawn) ?
Not met

pEC50 >= 8 for COc1cc(-c2ccc([C@H]3CCc4ccc([C@H](C5CC5)[C@H](C)C(=O)O)cc4O3)cc2CN2CCCCC2)c(F)cn1 ?
Met

pEC50 >= 8 for COc1cc(-c2ccc(C3CCc4ccc([C@H](C5CC5)[C@H](C)C(=O)O)cc4O3)c(CN3CCCC3)c2)ccn1 (mixture of isomers) ?
Met

pEC50 >= 8 for CNCc1cc([C@@H]2CCc3ccc([C@H](C4CC4)[C@H](C)C(=O)O)cc3O2)ccc1-c1cc(OC)ncc1F ?
Met
